system: Rac-1 (Homo sapiens (Human))
test method notes: Rac inhibition assay (labeled GTP)
Type: binding
test conditions: read-out: Rac-1 % Inh.
readout: inhibition at 20 µM

# count of solved cases: 8
Cc1sc2c(O)nc(-c3nccn3C)nc2c1-c1ccc(OCC(C)C)nc1 [drawing 3918] : 25 to 50%
O=C(NCCc1cccnc1)c1cc2nc(-c3ccccn3)nc(O)c2s1 [drawing 3715] : 76 to 100%
COCCNc1nc(-c2cn(C)cn2)nc2sc(C)c(-c3ccccc3)c12 [drawing 3903] : 51 to 75%
Oc1nc(-c2ccccn2)nc2c(CC3CCCNC3)csc12 (stereo not drawn) [drawing 3807] : 51 to 75%
COc1cc(N2CCN(C(=O)c3csc4c(O)nc(-c5ccccn5)nc34)CC2)cc(OC)c1OC [drawing 3647] : 1 to 25%
Oc1nc(-c2ccccn2)nc2cc(-c3ccncc3)sc12 [drawing 3879] : 25 to 50%
Oc1nc(-c2ccccn2)nc2c(-c3cc(CN4CCCC4)ccc3F)csc12 [drawing 3821] : 76 to 100%
Cc1c(C(=O)N2CCN(c3ccccc3)CC2)sc2c(O)nc(-c3ccccn3)nc12 [drawing 3802] : 51 to 75%

Could I get inhibition at 20 µM for every one of these entries?
1. Cc1sc2nc(-c3ccccn3)nc(N)c2c1Br [drawing 3803]
2. CC(C)OCCNc1nc(-c2nccn2C)nc2sc(-c3ccccc3)c(-c3ccccc3)c12 [drawing 3885]
3. Cc1ccc(OC2CCCC2)c(-c2csc3c(O)nc(-c4ccccn4)nc23)c1 [drawing 3716]
4. CC1CN(c2ccccc2)CCN1C(=O)c1csc2c(O)nc(-c3ccccn3)nc12 (stereo not drawn) [drawing 3650]
5. COc1ccc(C2CN(C(=O)c3csc4c(O)nc(-c5ccccn5)nc34)CCN2)cc1 (stereo not drawn) [drawing 3663]
6. COc1nc(-c2ccccn2)nc2c(C3CCC3)csc12 [drawing 3799]

A)
25 to 50%
25 to 50%
51 to 75%
76 to 100%
76 to 100%
76 to 100%

Sourced from patent US10940139B2
